Target: MMP-12 (Homo sapiens)
Construct: catalytic domain(^100Phe˜^263Gly) was amplified with RT-PCR; His-tag; enterokinase digestion-site; made in house; host or cells: Escherichia coli
Sequence (P39900 100-263): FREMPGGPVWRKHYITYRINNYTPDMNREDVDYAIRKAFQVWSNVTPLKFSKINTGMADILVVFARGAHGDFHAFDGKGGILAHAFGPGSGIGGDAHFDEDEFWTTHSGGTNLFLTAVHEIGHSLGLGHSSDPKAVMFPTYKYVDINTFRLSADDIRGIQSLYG
Assay: Assay for inhibitory activities on MMPs (fluorogenic peptide substrate), MMP-12
Assay type: biochemical
Details: catalytic domain 100Phe-263Gly; substrate MOCAc-Pro-Leu-Gly-Leu-A2Pr(DNP)-Ala-Arg-NH2
Readout kind: IC50 (nM)

compound="CC(C)[C@H](NS(=O)(=O)c1ccc(-c2ncc(-c3ccccc3)s2)cc1)C(=O)O [Compound B-3]" reported_measurement=3.16

1: CC(C)[C@H](NS(=O)(=O)c1ccc(-c2ncc(-c3ccc(Cl)cc3)o2)cc1)C(=O)O [Compound A-24]
2: CSCC[C@@H](NS(=O)(=O)c1ccc(-c2ncc(-c3ccc(Cl)cc3)o2)cc1)C(=O)O [Compound A-36]
3: O=C(O)[C@@H](Cc1c[nH]c2ccccc12)NS(=O)(=O)c1ccc(-c2ncc(-c3ccc(Cl)cc3)s2)cc1 [Compound B-51]
-- ask Provide the items ranked by increasing IC50. Rank them, then answer with their labels in that order.
-- reply 3, 2, 1
(3: 0.761 nM, 2: 2.98 nM, 1: 10 nM)

Hello, the source for this data is patent US6949566B2, in case you need it.
